For each of the proteins below, state its Km.
# Substrate: C[C@H](NC(=O)CCC(=O)O)C(=O)N[C@@H](C)C(=O)N1CCC[C@H]1C(=O)N[C@@H](Cc1ccccc1)C(=O)Nc1ccc([N+](=O)[O-])cc1
# Test: Kinetic parameters by release of p-nitroaniline from suc-AAPFpNA (absorbance at 410 nm, Michaelis-Menten fit)
# Assay type: biochemical, Bacillus lentus
# Condition Details: other: 0.1M Tris-HCL, pH 8.6, 25°C; pH 8.6; 25.0 °C
Give bare numbers, in µM.

Bacillus lentus subtilisin variant N74D/S97D/S126G/P204I/T254P/S259N, SEQ ID NO: 6 (Lederbergia lenta; N74D/P204I/S126G/S259N/S97D/T254P) (protein, made in house; host or cells: protease deficient Bacillus subtilis 168) AQSVPWGISRVQAPAAHNRGLTGSGVKVAVLDTGISTHPDLNIRGGASFVPGEPSTQDGNGHGTHVAGTIAALDNSIGVLGVAPSAELYAVKVLGADGSGSVSSIAQGLEWAGNNGMHVANLSLGGPSPSATLEQAVNSATSRGVLVVAASGNSGAGSISYPARYANAMAVGATDQNNNRASFSQYGAGLDIVAPGVNVQSTYIGSTYASLNGTSMATPHVAGAAALVKQKNPSWSNVQIRNHLKNTATSLGSPNLYGNGLVNAEAATR
660

Now turn to the next protein.
Data request, read-out Km, for Bacillus lentus subtilisin variant N74D/S101A/V102W (control variant of WO1995010591), SEQ ID NO: 3 (Lederbergia lenta; N74D/S101A/V102W) (protein, made in house; host or cells: protease deficient Bacillus subtilis 168) AQSVPWGISRVQAPAAHNRGLTGSGVKVAVLDTGISTHPDLNIRGGASFVPGEPSTQDGNGHGTHVAGTIAALDNSIGVLGVAPSAELYAVKVLGASGSGAWSSIAQGLEWAGNNGMHVANLSLGSPSPSATLEQAVNSATSRGVLVVAASGNSGAGSISYPARYANAMAVGATDQNNNRASFSQYGAGLDIVAPGVNVQSTYPGSTYASLNGTSMATPHVAGAAALVKQKNPSWSNVQIRNHLKNTATSLGSTNLYGSGLVNAEAATR 290
